system: SK-MEL-2 melanoma; test: NCI tumour cell line growth inhibition, 48 h
readoutType: TGI

Would you mind telling me what TGI value was observed for COc1ccc(C2C(N)=NCC2c2ccccn2)cc1 (stereo unspecified) ?
> 100 µM

Further, for CN1CCN(Cc2ccc(NC(=O)c3ccc(C(C)(C)C)c(C#Cc4cnc5cccnn45)c3)cc2C(F)(F)F)CC1 ?
22.5 µM

====

test system: PC-3 prostate; experiment: NCI tumour cell line growth inhibition, 48 h; in the data active = GI50 below about 0.43 µM; inactive = the rest
Respond using exactly one of the listed classes: True (active), False (inactive)

Past entries and their recorded results:
[[record]]
molecule = "CNC(=O)c1cc(Oc2ccc(NC(=O)Nc3ccc(Cl)c(OC(F)(F)F)c3)c(F)c2)ccn1"
assignedlabel = "False"

[[record]]
molecule = "CCn1c(-c2nonc2N)nc2ccc(F)cc21"
assignedlabel = "False"

[[record]]
molecule = "CC(=O)n1c(-c2ccc(Cl)cc2)nc2c(c1=O)C(c1ccc(Cl)cc1)c1sc3c(Cl)cccc3c1O2 (stereo not given)"
assignedlabel = "True"


Fill in: this test's call for CNc1nc(NC2CCCC2)nc(Sc2ccc(OC)cc2)n1 is ___
False

Further, for COCC(=O)OC1CCn2c1nc1c2C(=O)C(C)=C(NC(C)=O)C1=O (stereo not given) ?
False

====

tested on: DU-145 prostate; test: NCI tumour cell line growth inhibition, 48 h
Recorded TGI, one value per entry.

Please provide the recorded TGI for CCOC(=O)c1csc(NC(=O)CCCC#N)n1 , tested on DU-145 prostate.
> 100 µM

====

test system: HS 578T breast; assay: NCI tumour cell line growth inhibition, 48 h
Recorded TGI, one value per entry.
The reply should be a number in µM, with the unit left off.

Reference set, count: 2
[[record]]
molecule = "FC(F)=C(c1ccc(-c2ccc(Cl)cc2)cc1)C(F)(F)F"
quantityunit = "µM"
measurement = 68.7

[[record]]
molecule = "Cc1ccc2/c(=C/c3ccc(N(C)C)cc3)c3cc(-c4ccccc4)[n+](C)n3c2c1"
quantityunit = "µM"
measurement = 2.89


// next item, TGI requested
Would you mind telling me what TGI value was observed for CCN(Cc1c(F)cccc1F)c1ccc(CO)c(Cl)c1 ?
77.4

====

system: HS 578T breast; test: NCI tumour cell line growth inhibition, 48 h
readoutType: TGI (µM)
The reply should be a number in µM, with the unit left off.

Reference set, count: 5
[[record]]
molecule = "C=CC(=O)Nc1cccc(Nc2nc(Nc3ccc(OCCOC)cc3)ncc2F)c1"
measurement = 6.97

[[record]]
molecule = "COC(=O)/C=C\\S/C(=C(/c1ccccc1)n1ccc(C(=O)OC)n1)c1ccccc1"
measurement = 48

[[record]]
molecule = "C=CC(=O)N1CCN(c2ncnc3c(F)c(-c4c(O)cccc4F)c(Cl)cc23)CC1"
measurement = 66.4

[[record]]
molecule = "Cc1cccc(NC(Nc2cccc(C)c2)=C(C(Cl)=C(Cl)Cl)[N+](=O)[O-])c1"
measurement = 11.2

[[record]]
molecule = "O=C(N/N=C/c1ccc(Cl)cc1Cl)c1ccccc1Nc1cccc(C(F)(F)F)c1"
measurement = 44.5


Would you mind telling me what TGI value was observed for O=C(Nc1cc(-c2ccccc2)[nH]n1)c1ccc(Cl)cc1 ?
65.9

Further, for C/C(=N\Nc1nc2ccccc2s1)c1cccnn1 ?
44.1

====

tested on: M14 melanoma; assay: NCI tumour cell line growth inhibition, 48 h
Recorded TGI, one value per entry.
The reply should be a number in µM, with the unit left off.

Reference set, count: 3
[[record]]
compound = "COc1cc2c3c(n(CCCN4CCC(N)CC4)c(=O)c2cc1OC)-c1cc2c(cc1C3=O)OCO2"
measuredtarget = "M14 melanoma"
quantityunit = "µM"
measurement = 5.23

[[record]]
compound = "N#Cc1c(-c2ccccc2)nc2c(c(-c3ccccc3)nn2-c2ccccc2)c1-c1ccc(O)cc1"
measuredtarget = "M14 melanoma"
quantityunit = "µM"
measurement = 5.48

[[record]]
compound = "CC(=O)n1c(-c2ccc(Cl)cc2)nc2c(c1=O)C(c1ccc(Cl)cc1)c1sc3c(Cl)cccc3c1O2 (stereo not given)"
measuredtarget = "M14 melanoma"
quantityunit = "µM"
measurement = 1.24


// next item, TGI requested
Please provide the recorded TGI for COc1cc(/C=C/C(=N\NC(=O)c2ccccc2)c2sc(Nc3ccc(Cl)c(Cl)c3)nc2C)ccc1O , tested on M14 melanoma.
93.4

Ref: PubChem BioAssay (NCI)
